All figures here come from ChEMBL document CHEMBL5260824.

Reported inhibition at 3 h, 10 µM values for the following compounds.
target: UniProt:P33527; assay: Inhibition of MRP1 in human NCI-H69AR cells at 10 uM incubated for 180 mins in presence of daunorubicin by flow cytometry analysis relative to control; format: cell-based; settings: probe daunorubicin

Item: N#Cc1c2n(c3c(N4CCN(C(=O)c5ccco5)CC4)ncnc13)CCCCC2 | System: UniProt:P33527 | inhibition at 3 h, 10 µM: > 25%

Item: CCn1cc(C#N)c2ncnc(N3CCN(CCc4c[nH]c5ccccc45)CC3)c21 | System: UniProt:P33527 | inhibition at 3 h, 10 µM: > 25%

Item: c1ccc(N2CCN(c3ncnc4c3[nH]c3ccccc34)CC2)nc1 | System: UniProt:P33527 | inhibition at 3 h, 10 µM: > 25%

Item: O=C(c1ccco1)N1CCN(c2ncnc3c2[nH]c2ccccc23)CC1 | System: UniProt:P33527 | inhibition at 3 h, 10 µM: > 25%

Item: N#Cc1c2n(c3c(NCCc4c[nH]c5ccccc45)ncnc13)CCCC2 | System: UniProt:P33527 | inhibition at 3 h, 10 µM: 25%

Item: c1ccc(CCN2CCN(c3ncnc4c3[nH]c3ccccc34)CC2)cc1 | System: UniProt:P33527 | inhibition at 3 h, 10 µM: > 25%

Item: N#Cc1c2n(c3c(N4CCN(C(=O)c5ccco5)CC4)ncnc13)CCCC2 | System: UniProt:P33527 | inhibition at 3 h, 10 µM: > 25%

Item: N#Cc1c2n(c3c(N4CCN(Cc5ccc6c(c5)OCO6)CC4)ncnc13)CCCC2 | System: UniProt:P33527 | inhibition at 3 h, 10 µM: > 25%

Item: N#Cc1cn(-c2ccccc2)c2c(N3CCN(CCc4c[nH]c5ccccc45)CC3)ncnc12 | System: UniProt:P33527 | inhibition at 3 h, 10 µM: > 25%

Item: N#Cc1c2n(c3c(N4CCN(c5ccccn5)CC4)ncnc13)CCCC2 | System: UniProt:P33527 | inhibition at 3 h, 10 µM: 25%

###

molecular target: ATP-dependent translocase ABCB1 (Homo sapiens); assay: Inhibition of P-gp (unknown origin)
Sequence (P08183 whole entry): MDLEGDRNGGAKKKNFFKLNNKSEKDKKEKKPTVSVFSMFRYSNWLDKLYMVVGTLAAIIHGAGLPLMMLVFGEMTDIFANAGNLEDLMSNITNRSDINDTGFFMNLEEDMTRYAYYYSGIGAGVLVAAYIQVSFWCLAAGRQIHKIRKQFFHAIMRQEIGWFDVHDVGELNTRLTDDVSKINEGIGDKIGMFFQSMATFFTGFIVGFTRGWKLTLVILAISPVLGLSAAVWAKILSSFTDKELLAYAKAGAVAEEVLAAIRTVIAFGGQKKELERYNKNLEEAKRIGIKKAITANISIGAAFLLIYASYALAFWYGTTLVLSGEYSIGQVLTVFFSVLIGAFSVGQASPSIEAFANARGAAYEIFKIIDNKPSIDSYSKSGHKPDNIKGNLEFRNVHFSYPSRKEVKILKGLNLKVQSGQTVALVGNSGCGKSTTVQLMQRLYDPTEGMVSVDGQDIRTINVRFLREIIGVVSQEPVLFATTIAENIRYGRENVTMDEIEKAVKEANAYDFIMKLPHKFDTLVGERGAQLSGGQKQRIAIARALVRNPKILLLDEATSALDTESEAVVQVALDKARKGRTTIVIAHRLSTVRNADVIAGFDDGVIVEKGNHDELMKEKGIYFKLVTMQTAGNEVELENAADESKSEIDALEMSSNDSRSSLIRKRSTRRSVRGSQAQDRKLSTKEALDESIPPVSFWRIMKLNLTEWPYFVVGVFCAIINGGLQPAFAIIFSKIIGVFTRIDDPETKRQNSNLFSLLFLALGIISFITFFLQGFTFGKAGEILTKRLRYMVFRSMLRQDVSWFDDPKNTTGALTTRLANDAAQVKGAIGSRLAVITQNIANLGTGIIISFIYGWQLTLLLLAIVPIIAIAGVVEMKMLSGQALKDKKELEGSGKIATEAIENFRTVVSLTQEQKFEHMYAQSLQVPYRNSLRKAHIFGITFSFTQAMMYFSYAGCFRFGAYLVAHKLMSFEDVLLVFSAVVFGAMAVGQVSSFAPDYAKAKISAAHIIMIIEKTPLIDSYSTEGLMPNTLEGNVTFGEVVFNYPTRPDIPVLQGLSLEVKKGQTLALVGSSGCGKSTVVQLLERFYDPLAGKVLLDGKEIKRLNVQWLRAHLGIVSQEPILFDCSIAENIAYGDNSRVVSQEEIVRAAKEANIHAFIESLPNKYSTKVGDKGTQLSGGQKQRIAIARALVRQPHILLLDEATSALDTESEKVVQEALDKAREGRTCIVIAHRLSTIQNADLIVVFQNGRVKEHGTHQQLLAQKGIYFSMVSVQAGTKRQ
MEASURED_QUANTITY: pIC50
// returns pIC50 (minus log10 of molar concentration), number only

> print(dat)
                                  structure  test.result
1  N#Cc1cn(Cc2ccccc2)c2c(NCCCc3ccccc3)ncnc12         4.85

Lab book: pIC50 of N#Cc1c2n(c3c(N4CCN(CCc5ccc(F)c(F)c5)CC4)nc(-c4ccncc4)nc13)CCCC2 noted as 6.98

Lab book: pIC50 of COc1cc(N(C)C(=O)Cc2cccc(-n3c(=O)c4c(C)onc4c4c(Cl)cccc43)c2)cc(OC)c1OC noted as 5.88

Lab book: pIC50 of COc1ccc(C(=O)/C=C/c2ccc(OC)c(OC)c2)c(OC(=O)c2ccccc2OC)c1 noted as 5.67

Lab book: pIC50 of COc1ccc(/C=C/C(=O)c2ccccc2NC(=O)c2cnc3ccccc3c2)cc1OC noted as 6.31

Lab book: pIC50 of COc1cc2c(cc1OC)CN(CCn1c(-c3ccc(N(C)C)cc3)nc3ccc([N+](=O)[O-])cc3c1=O)CC2 noted as 6.22

###

biological target: Broad substrate specificity ATP-binding cassette transporter ABCG2 (Homo sapiens); assay: Inhibition of BCRP (unknown origin) expressed in MDCK cells assessed as increase in Hoechst 33342 accumulation incubated for 30 mins by Hoechst 33342 dye based fluorescence assay; format: cell-based
Sequence (Q9UNQ0 whole entry): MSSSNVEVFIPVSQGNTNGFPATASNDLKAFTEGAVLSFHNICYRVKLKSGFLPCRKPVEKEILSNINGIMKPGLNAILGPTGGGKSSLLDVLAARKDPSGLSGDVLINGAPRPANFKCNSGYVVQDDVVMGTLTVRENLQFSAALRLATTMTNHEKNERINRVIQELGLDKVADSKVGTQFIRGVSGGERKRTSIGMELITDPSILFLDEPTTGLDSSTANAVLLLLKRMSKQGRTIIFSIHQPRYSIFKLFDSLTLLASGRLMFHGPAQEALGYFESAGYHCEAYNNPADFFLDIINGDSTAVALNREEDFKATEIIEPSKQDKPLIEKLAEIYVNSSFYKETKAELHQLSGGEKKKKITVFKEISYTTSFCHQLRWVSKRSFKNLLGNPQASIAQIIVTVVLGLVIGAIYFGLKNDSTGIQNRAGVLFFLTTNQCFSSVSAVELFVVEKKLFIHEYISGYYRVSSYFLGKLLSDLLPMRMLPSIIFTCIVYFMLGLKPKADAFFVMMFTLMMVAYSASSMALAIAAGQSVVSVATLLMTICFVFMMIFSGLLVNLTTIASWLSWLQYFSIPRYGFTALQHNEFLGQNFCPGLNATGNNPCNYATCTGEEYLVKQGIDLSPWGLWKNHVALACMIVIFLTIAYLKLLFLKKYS
MEASURED_QUANTITY: IC50
Could you write the number and then its unit?

Lab book: IC50 of COc1ccc(Nc2nc(-c3ccccc3)nc3ccccc23)cc1OC noted as 1.19 µM

###

tested on: BCRP (ABCG2); test: Therapeutic index, ratio of GI50 for antiproliferative activity against dog MDCK-II-BCRP cells to IC50 for inhibition of BCRP (unknown origin) expressed in dog MDCK-II cells; type: toxicity, cell-based
MEASURED_QUANTITY: selectivity ratio
Just the number, please.

Lab book: selectivity ratio of N#Cc1cn(CCCc2ccccc2)c2c(N3CCN(CCc4c[nH]c5ccccc45)CC3)ncnc12 noted as 14

###

target: MRP1 (Homo sapiens, UniProt P33527); experiment: Inhibition of MRP1 in human NCI-H69AR cells assessed as maximum inhibition incubated for 180 mins in presence of daunorubicin by flow cytometry analysis relative to control; type: cell-based; settings: probe daunorubicin, read-out: Imax
Sequence (P33527 whole entry): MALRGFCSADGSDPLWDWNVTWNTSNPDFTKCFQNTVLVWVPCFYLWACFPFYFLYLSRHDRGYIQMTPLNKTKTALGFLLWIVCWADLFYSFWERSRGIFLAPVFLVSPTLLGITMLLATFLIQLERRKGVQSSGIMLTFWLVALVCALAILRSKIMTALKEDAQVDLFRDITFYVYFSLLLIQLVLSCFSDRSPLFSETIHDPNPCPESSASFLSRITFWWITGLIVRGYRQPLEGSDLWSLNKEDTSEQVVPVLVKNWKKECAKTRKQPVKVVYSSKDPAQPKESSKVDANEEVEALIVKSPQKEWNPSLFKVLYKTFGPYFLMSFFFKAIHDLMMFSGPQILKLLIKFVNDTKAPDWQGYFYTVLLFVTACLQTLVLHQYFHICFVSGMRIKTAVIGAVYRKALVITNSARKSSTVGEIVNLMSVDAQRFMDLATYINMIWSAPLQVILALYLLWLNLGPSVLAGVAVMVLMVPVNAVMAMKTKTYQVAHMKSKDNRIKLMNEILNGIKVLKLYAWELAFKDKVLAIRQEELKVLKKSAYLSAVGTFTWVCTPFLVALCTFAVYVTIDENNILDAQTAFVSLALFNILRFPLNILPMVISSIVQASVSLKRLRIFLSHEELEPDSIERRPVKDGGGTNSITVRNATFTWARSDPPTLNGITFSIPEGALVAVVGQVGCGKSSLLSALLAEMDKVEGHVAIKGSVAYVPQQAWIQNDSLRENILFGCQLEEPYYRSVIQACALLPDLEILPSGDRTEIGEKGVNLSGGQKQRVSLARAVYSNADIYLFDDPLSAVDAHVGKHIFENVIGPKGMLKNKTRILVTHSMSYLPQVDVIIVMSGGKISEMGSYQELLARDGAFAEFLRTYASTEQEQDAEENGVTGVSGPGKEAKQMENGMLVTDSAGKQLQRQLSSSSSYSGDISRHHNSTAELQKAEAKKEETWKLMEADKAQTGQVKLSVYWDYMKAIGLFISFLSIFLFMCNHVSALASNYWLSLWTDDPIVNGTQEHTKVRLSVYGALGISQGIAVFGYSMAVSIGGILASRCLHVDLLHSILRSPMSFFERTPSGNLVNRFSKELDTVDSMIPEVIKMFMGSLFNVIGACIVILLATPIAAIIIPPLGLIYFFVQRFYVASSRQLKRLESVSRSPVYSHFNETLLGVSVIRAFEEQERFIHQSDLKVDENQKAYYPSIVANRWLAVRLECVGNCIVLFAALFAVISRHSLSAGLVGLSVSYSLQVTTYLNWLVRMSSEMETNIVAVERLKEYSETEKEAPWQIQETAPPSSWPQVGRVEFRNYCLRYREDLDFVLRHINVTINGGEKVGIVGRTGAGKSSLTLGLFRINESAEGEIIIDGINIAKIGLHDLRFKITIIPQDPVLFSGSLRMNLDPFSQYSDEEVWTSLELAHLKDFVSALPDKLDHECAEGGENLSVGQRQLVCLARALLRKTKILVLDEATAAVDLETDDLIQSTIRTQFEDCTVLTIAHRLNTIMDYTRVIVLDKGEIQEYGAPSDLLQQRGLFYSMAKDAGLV
MEASURED_QUANTITY: Emax at 3 h (%)
Write the number in % without appending the unit.

Lab book: Emax at 3 h of c1ccc(CCN2CCN(c3ncnc4c3[nH]c3ccccc34)CC2)cc1 noted as 61

###

test system: MRP1; assay: Therapeutic index, ratio of GI50 for antiproliferative activity against human NCI-H69AR cells to IC50 for inhibition of MRP1 in human NCI-H69AR cells; assay type: toxicity, cell-based
MEASURED_QUANTITY: selectivity ratio

Lab book: selectivity ratio of N#Cc1cn(CCCc2ccccc2)c2c(N3CCN(CCc4c[nH]c5ccccc45)CC3)ncnc12 noted as 303

###

test: Reversal of drug resistance in human A2780 ADR cells expressing P-gp; assay type: functional, cell-based
MEASURED_QUANTITY: EC50 (nM)
Write the number in nM without appending the unit.

Lab book: EC50 of N#Cc1cn(CCCc2ccccc2)c2c(N3CCN(CCc4c[nH]c5ccccc45)CC3)ncnc12 noted as 563

###

target: Broad substrate specificity ATP-binding cassette transporter ABCG2 (Homo sapiens); assay: Inhibition of BCRP (unknown origin) expressed in MDCK cells assessed as increase in Hoechst 33342 accumulation incubated for 60 mins by Hoechst 33342 dye based fluorescence assay; type: cell-based
MEASURED_QUANTITY: IC50 (nM)
Write the number in nM without appending the unit.

Lab book: IC50 of COc1ccc(/C=C/C(=O)c2ccccc2NC(=O)c2cnc3ccccc3c2)cc1OC noted as 573

###

target: MRP1 (Homo sapiens); assay: Inhibition of MRP1 in human NCI-H69AR cells at 10 uM incubated for 180 mins in presence of daunorubicin by flow cytometry analysis relative to control; format: cell-based; settings: probe daunorubicin
Reported inhibition at 3 h, 10 µM values for the following compounds.

Take a look at these entries with their results.
> print(dat)
                                  structure         measured.quantity  test.result
1  N#Cc1cn(C2CC2)c2c(N3CCN(CCc4c[nH]c5ccccc45)CC3)ncnc12  inhibition at 3 h, 10 µM        > 25%
2  Cn1cc(C#N)c2ncnc(N3CCN(CCc4c[nH]c5ccccc45)CC3)c21  inhibition at 3 h, 10 µM        > 25%
3  N#Cc1c2n(c3c(N4CCN(CCc5c[nH]c6ccccc56)CC4)ncnc13)CCCCC2  inhibition at 3 h, 10 µM          25%

Moving on to another compound below.
Lab book: inhibition at 3 h, 10 µM of N#Cc1cn(Cc2ccccc2)c2c(N3CCN(CCc4c[nH]c5ccccc45)CC3)ncnc12 noted as > 25%

###

test: Reversal of drug resistance in dog MDCK-II-BCRP cells expressing BCRP; type: functional, cell-based, Canis lupus familiaris
MEASURED_QUANTITY: pEC50
// returns pEC50 (minus log10 of molar concentration), number only

Lab book: pEC50 of N#Cc1cn(CCCc2ccccc2)c2c(N3CCN(CCc4c[nH]c5ccccc45)CC3)ncnc12 noted as 6.32

###

target: Multidrug resistance-associated protein 1 (Homo sapiens); test: Inhibition of MRP1 (unknown origin) measured for 2 hrs
MEASURED_QUANTITY: pIC50
// returns pIC50 (minus log10 of molar concentration), number only

Item: COc1cc2c(cc1OC)CN(CCn1c(-c3ccc(N(C)C)cc3)nc3ccc([N+](=O)[O-])cc3c1=O)CC2 | System: Multidrug resistance-associated protein 1 (Homo sapiens) | pIC50: 6.40

###

Reported IC50 values for the following compounds.
molecular target: Multidrug resistance-associated protein 1 (Homo sapiens, UniProt P33527); assay: Inhibition of MRP1 in human NCI-H69AR cells incubated for 180 mins in presence of daunorubicin by flow cytometry analysis; assay type: cell-based
Write the number in µM without appending the unit.

> print(dat)
                                  structure  units.text  test.result
1  N#Cc1c2n(c3c(N4CCN(CCc5c[nH]c6ccccc56)CC4)ncnc13)CCCCC2          µM        0.289
2  N#Cc1cn(CCc2ccccc2)c2c(N3CCN(CCc4c[nH]c5ccccc45)CC3)ncnc12          µM        0.524
3  c1ccc(N2CCN(c3ncnc4c3[nH]c3ccccc34)CC2)cc1          µM        0.146
4  c1ccc(N2CCN(c3ncnc4c3[nH]c3ccccc34)CC2)nc1          µM        0.495
5  N#Cc1c2n(c3c(N4CCN(c5ccccn5)CC4)ncnc13)CCCC2          µM         1.02
6  N#Cc1c2n(c3c(N4CCN(C(=O)c5ccco5)CC4)ncnc13)CCCC2          µM        0.883
7  N#Cc1c2n(c3c(N4CCN(Cc5ccc6c(c5)OCO6)CC4)ncnc13)CCCCC2          µM         1.02
8  N#Cc1c2n(c3c(N4CCN(CCc5ccncc5)CC4)ncnc13)CCCCC2          µM         1.14

Lab book: IC50 of c1ccc(CN2CCN(c3ncnc4c3[nH]c3ccccc34)CC2)cc1 noted as 0.363

Lab book: IC50 of N#Cc1cn(-c2ccccc2)c2c(N3CCN(CCc4c[nH]c5ccccc45)CC3)ncnc12 noted as 0.328

Lab book: IC50 of c1ccc(CCN2CCN(c3ncnc4c3[nH]c3ccccc34)CC2)nc1 noted as 0.345
